# Assay method text: solvent given as SMILES
# Condition label: in CN(C)C=O
Observable: absorption maximum (nm)
Number in nm, nothing else.

Task: If you can, please state the reported absorption maximum value of CC1=NN(c2ccccc2)C(=O)/C1=C\c1cn(-c2ccccc2)nc1-c1ccc([N+](=O)[O-])cc1 .
Result: 361

Task: Also check CN(C)c1ccc(/C=C/c2ccc(-c3nnc(-c4ccc(-c5cc6ccccc6s5)cc4)o3)cc2)cc1
Result: 338

Task: Also check CN(C)c1c2ccccc2cc2ccccc12
Result: 388

Task: Also check N#Cc1c(-c2ccccc2)cc(-c2ccccc2)[nH]c1=S
Result: 439

Task: Also check CCCCC1(CCCC)c2cc(C#Cc3ccc4ccc5cccc6ccc3c4c56)ccc2-c2ccc(C#Cc3ccc4ccc5cccc6ccc3c4c56)cc21
Result: 427

Task: Also check CCCCN1C(=O)C(=C/C=C/C=C2N(CCCC)c3ccccc3N2CCCC)C(=O)N(CCCC)C1=S
Result: 497

Task: Also check O=C([O-])c1ccccc1C1=c2cc3c4c(c2Oc2c1cc1c5c2CCCN5CCC1)CCC[N+]=4CCC3
Result: 580

Task: Also check CCN(CC)c1ccc(/C=N/c2cc3ccccc3cc2/N=C/c2ccc(N(CC)CC)cc2O)c(O)c1
Result: 416

Task: Also check O=C1/C(=C2\Sc3ccccc3C2=O)Sc2ccccc21
Result: 543

Task: Also check CC1=NN(c2ccccc2)C(=O)/C1=C/c1cn(-c2ccccc2)nc1-c1ccccc1
Result: 367

Task: Also check C1=Cc2nc1c(-c1cccs1)c1ccc([nH]1)c(-c1cccs1)c1nc(c(-c3cccs3)c3ccc([nH]3)c2-c2cccs2)C=C1
Result: 661

Task: Also check CC1=C(Cc2ccccc2)C(C)=[N+]2C1=C(C)c1c(C)c(-c3csc(N4CCOCC4)n3)c(C)n1[B-]2(F)F
Result: 526

Task: Also check CCOC(=O)/C(C#N)=C\c1cn(-c2ccccc2)nc1-c1ccccc1
Result: 347

Task: Also check O=C1c2ccccc2-c2ccc(N3CCN(c4ccccc4)CC3)c3cccc1c23
Result: 447.2

Task: Also check Nc1ccc(-c2ccc(N)cc2)cc1
Result: 299

Task: Also check CCCCCCCCCCCCOc1cc2c(cc1OCCCCCCCCCCCC)C1=C3C(=O)N4C=Cc5cc(OCCCCCCCCCCCC)c(OCCCCCCCCCCCC)cc5C4=C3C(=O)N1C=C2
Result: 592

Task: Also check Nc1ccc(N2C(=O)c3ccc4c5ccc6c7c(ccc(c8ccc(c3c48)C2=O)c75)C(=O)NC6=O)cc1
Result: 524

Task: Also check O=C1Nc2ccccc2/C1=C/C(=O)c1ccc(O)cc1
Result: 337

Task: Also check CS(=O)(=O)c1ccc(-c2cc3ccc(N)cc3c(=O)o2)cc1
Result: 367

* * *

# Assay method text: solvent given as SMILES
# Condition label: in CC#N
Field: absorption maximum. Provide a value for each of the molecules that follow.
Number in nm, nothing else.

Task: If you can, please state the reported absorption maximum value of CCN(CC)c1ccc(/C=N/c2cc3nc4ccccc4nc3cc2/N=C/c2ccc(N(CC)CC)cc2O)c(O)c1 .
Result: 451

Task: Also check C1=Nc2cccc3cccc(c23)N1
Result: 329

Task: Also check Nc1ccc(-c2ccc(N)cc2)cc1
Result: 286

Task: Also check CCOC(=O)CCOc1ccc(C(c2c(C)[nH]c3ccccc23)c2c(C)[nH]c3ccccc23)cc1OC
Result: 289

Task: Also check c1ccc(-c2nc(-c3ccc(-c4nc(-c5ccccc5)c(-c5ccccc5)[nH]4)s3)[nH]c2-c2ccccc2)cc1
Result: 385

Task: Also check CCCCCCc1ccc2c(/C=N/c3cc(/N=C/c4c(O)ccc5cc(CCCCCC)ccc45)cc(/N=C/c4c(O)ccc5cc(CCCCCC)ccc45)c3)c(O)ccc2c1
Result: 474

Task: Also check COc1ccc(C(=O)/C=C2\C(=O)Nc3ccccc32)c(OC)c1
Result: 328

Task: Also check COc1ccc(-c2csc(/C(C#N)=N\Nc3ccc(C#N)cc3)n2)cc1
Result: 401

Task: Also check O=c1c2ccccc2c2c3c(cccc13)c(-c1ccccc1)c1c3cccc4cccc(c43)c12
Result: 462

Task: Also check N#Cc1nn(-c2ccc(Cl)cc2)nc1N1CCCC1
Result: 346

Task: Also check N#Cc1ccc(-c2ccc3c(c2)c2cc(-c4ccc(C#N)cc4)ccc2c2c3nc(-c3ccc(-c4ccc(N(c5ccccc5)c5ccccc5)cc4)cc3)n2-c2ccccc2)cc1
Result: 360.44

Task: Also check Cc1cccc2cc(-c3cc4cccc(C)c4oc3=O)oc12
Result: 369

Task: Also check COC(=O)/C=C/c1sc(-c2ccc(N(C)C)cc2)c(-c2ccc(OC)cc2)c1O
Result: 451

Task: Also check CN(C)c1ccc(/C=C/c2cc[n+](CCC[n+]3ccc(/C=C/c4ccc(N(C)C)cc4)cc3)cc2)cc1
Result: 488

Task: Also check CCN(CC)c1ccc2c(c1)OC1=C(/C=C/C3=[N+](C)c4ccccc4C3(C)C)CCCC1=C2c1ccccc1C(=O)O
Result: 708

Task: Also check COC(=O)c1nc2c(N(C)C)nc(N)nc2n1Cc1ccccc1
Result: 332

Task: Also check O=c1cc[nH]c(=O)[nH]1
Result: 256

Task: Also check c1ccc2cc(-c3cc(-c4nccs4)nc(-c4nccs4)c3)ccc2c1
Result: 323

Task: Also check COc1cc(OC)c2c(c1)C(=O)c1ccc(OC)cc1-2
Result: 441

Task: Also check CCOC(=O)c1ccccc1-c1c2ccc(=O)cc-2oc2cc(OC(=O)[C@H](CSCc3ccc(C)cc3)NC(=O)OC(C)(C)C)ccc12
Result: 431

Task: Also check C(=C\c1ccc(N(c2ccccc2)c2ccccc2)cc1)/c1ccccc1
Result: 362

Task: Also check CCn1c(=O)nc2n(C)c3cc(C)ccc3nc-2c1=O
Result: 445

Task: Also check c1ccc(-c2nn(-c3ccccc3)c3nc4ccccc4cc23)cc1
Result: 396.83

Task: Also check CCCCCCc1ccc2c3c(ccc2c1)O[B-](c1ccccc1)(c1ccccc1)[N+](c1ccc([N+]2=Cc4c(ccc5cc(CCCCCC)ccc45)O[B-]2(c2ccccc2)c2ccccc2)cc1)=C3
Result: 452

Task: Also check Cc1c2ccc3c(C)[n+](C)ccc3c2cc[n+]1C
Result: 390

Task: Also check N#Cc1cc2nc3c(nc2cc1C#N)C1c2ccc(N(c4ccccc4)c4ccccc4)cc2C3c2ccc(N(c3ccccc3)c3ccccc3)cc21
Result: 410

Task: Also check COC(=O)/C=C/c1sc(-c2ccc(N(C)C)cc2)c(-c2cccnc2)c1N
Result: 415

Task: Also check Cc1ccc(-c2cc(-c3ccccc3)c3c(N)nc(N4CCCC4)c(C#N)c3n2)cc1
Result: 412

Task: Also check Cc1ccc(C2CC(c3ccc(O)cc3)=NN2c2ccc(S(N)(=O)=O)cc2)cc1 (stereo not given)
Result: 358

Task: Also check COc1ccc(/C=C/C2=CC(/C=C/c3ccc(OC)cc3)=[O+][B-](OC(C)=O)(OC(C)=O)O2)cc1
Result: 462

Task: Also check CCCCCCCCCCCCOc1cc(/C=C/c2ccc3c(c2)C(CC)(CC)c2cc(N4c5ccccc5Sc5ccccc54)ccc2-3)c(OCCCCCCCCCCCC)cc1/C=C/c1ccc2c(c1)C(CC)(CC)c1cc(N3c4ccccc4Sc4ccccc43)ccc1-2
Result: 436.72

Task: Also check CN1/C(=C\C=C\C2=C3C=CC(c4ccccc4)=[N+]3[B-](F)(F)n3c2ccc3-c2ccccc2)C(C)(C)c2ccccc21
Result: 671

Task: Also check CC(C)(C)c1ccc2c(c1)c1cc(C(C)(C)C)ccc1n2-c1cccc(-c2nc(-c3cccc(-n4c5ccc(C(C)(C)C)cc5c5cc(C(C)(C)C)ccc54)c3)nc(-c3cccc(P(=O)(c4ccccc4)c4ccccc4)c3)n2)c1
Result: 344.36

Task: Also check O=C1CCCC2=C1CC1=C(CCCC1=O)N2NC(=O)c1ccccc1
Result: 368

Task: Also check COc1ccc(C2=CC(c3ccc(OC)cc3)=[O+][B-](C(C)=O)(C(C)=O)O2)cc1
Result: 410

# credit: the Deep4Chem optical property database
